# targetOrSystem: aggregated (oligomeric) P301S 2N4R tau, pHrodo-labelled (human, UniProt P10636 1-758, pHrodo Red maleimide label); also: test concentration or dose not given here
# Sequence (P10636 other isoform, or with tags, fused parts or gaps P301S P301S): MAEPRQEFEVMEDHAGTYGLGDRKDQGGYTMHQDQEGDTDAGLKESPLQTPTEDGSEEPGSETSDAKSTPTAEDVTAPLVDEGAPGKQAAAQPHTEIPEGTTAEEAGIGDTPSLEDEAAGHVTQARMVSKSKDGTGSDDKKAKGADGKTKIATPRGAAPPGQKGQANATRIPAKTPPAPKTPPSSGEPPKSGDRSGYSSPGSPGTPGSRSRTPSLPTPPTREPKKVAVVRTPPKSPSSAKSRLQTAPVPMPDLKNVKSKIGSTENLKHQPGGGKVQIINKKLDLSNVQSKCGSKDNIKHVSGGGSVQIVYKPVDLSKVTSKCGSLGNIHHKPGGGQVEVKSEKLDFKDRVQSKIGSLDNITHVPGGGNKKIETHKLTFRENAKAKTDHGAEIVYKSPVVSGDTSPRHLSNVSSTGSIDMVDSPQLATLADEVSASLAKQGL
# protocolSummary: cell-based or functional assay
quantityKind: inhibition of aggregated tau uptake into human iPSC-derived neurons (%)
Give the quantity in %, number only.

#44_VH4VK4_H04/pVL (antibody, V domains shown, also called VH04/pVL; Clone VH4_H04) VH: QVQLQESGPGLVKPSETLSLTCTVSGIDLSSYAMAWVRQAPGKGLEWIGCIDRRGGTFYASWVKGRFTISKDTSKTTVDLQMTSLTAEDTATYFCARDAGSFHPWGQGTLVTVSS VL: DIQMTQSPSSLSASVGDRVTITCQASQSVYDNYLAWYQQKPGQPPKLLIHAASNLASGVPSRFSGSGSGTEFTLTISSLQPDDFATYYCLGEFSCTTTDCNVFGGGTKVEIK
65.5

In plain terms, #44 VH3VK3 humanised hIgG1 (antibody, V domains shown, also called VH3Vκ3; Clone VH3VK3 (A)) VH: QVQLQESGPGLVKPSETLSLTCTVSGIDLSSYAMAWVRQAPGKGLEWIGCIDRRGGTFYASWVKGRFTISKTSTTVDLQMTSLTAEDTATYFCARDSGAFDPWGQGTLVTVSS VL: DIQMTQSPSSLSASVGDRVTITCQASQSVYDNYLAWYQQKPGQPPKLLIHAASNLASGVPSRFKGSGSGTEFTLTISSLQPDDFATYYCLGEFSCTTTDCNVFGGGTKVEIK has a documented inhibition of aggregated tau uptake into human iPSC-derived neurons of 30.6

The value of inhibition of aggregated tau uptake into human iPSC-derived neurons measured for the binder #44_VH4VK4_H01/pVL (antibody, V domains shown, also called Clone VH4_H01; #44_VH4_H01) VH: QVQLQESGPGLVKPSETLSLTCTVSGIDLSSYAMAWVRQAPGKGLEWIGCIDRRGGTFYASWVKGRFTISKDTSKTTVDLQMTSLTAEDTATYFCARDVGSFDVWGQGTLVTVSS VL: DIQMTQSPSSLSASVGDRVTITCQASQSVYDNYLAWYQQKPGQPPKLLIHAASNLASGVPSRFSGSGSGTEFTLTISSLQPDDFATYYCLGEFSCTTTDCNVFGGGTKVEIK turned out to be 61.1
